# credit: patent US9926281B2

- measuredOn: human ADAMTS-5 (Homo sapiens (Human), UniProt Q9UNA0)
- Sequence (Q9UNA0 262-930): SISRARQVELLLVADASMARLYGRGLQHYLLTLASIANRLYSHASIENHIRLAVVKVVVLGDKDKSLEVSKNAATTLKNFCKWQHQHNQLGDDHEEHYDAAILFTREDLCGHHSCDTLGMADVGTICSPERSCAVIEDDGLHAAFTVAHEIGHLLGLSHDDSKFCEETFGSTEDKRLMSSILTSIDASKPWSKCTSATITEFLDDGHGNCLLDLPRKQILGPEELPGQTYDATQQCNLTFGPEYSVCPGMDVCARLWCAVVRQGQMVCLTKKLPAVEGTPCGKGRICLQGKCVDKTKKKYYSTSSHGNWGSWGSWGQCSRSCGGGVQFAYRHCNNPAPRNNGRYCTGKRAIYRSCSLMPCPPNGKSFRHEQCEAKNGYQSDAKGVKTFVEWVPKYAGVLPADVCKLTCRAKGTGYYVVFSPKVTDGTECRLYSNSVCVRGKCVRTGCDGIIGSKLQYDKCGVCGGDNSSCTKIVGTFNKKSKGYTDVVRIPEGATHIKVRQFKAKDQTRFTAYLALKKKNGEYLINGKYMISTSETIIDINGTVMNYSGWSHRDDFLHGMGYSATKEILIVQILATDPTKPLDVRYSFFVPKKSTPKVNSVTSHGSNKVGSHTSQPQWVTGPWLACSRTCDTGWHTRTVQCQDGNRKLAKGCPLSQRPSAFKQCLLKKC
- conditionNotes: read-out: hADAMTS-5 potency IC50
Response field label: string, one of condition met (IC50 strictly below 30 nM) or condition not met.

// below: answered compounds
1. CC(CC1(C)NC(=O)NC1=O)C(=O)N1CCN(c2cc(F)cc(Cl)c2)[C@@H](C)C1 (some centres unmarked) = condition not met
2. Cc1cccc(C2(CCC(=O)N3CCN(c4ccc(Cl)c(Cl)c4)[C@@H](C)C3)NC(=O)NC2=O)n1 (some centres unmarked) = condition met
3. C[C@H]1CN(C(=O)CCC2(c3cocn3)NC(=O)NC2=O)CCN1c1cc(F)cc(Cl)c1 (some centres unmarked) = condition not met

Ask | Please indicate whether the reported IC50 of CC(CC1(CCN)NC(=O)NC1=O)C(=O)N1CCN(c2ccc(F)c(F)c2)CC1 (centres unmarked) is strictly below 30 nM.
Reply | condition not met

Ask | Identify whether the compound CC1(CC(CO)C(=O)N2CCN(c3cc(Cl)cc(Cl)c3)CC2)NC(=O)NC1=O (centres unmarked) [compound 220] records IC50 below 30 nM.
Reply | condition met

Ask | I'd appreciate it if you could check whether CC(CC1(C2CC2)NC(=O)NC1=O)C(=O)N1CCN(c2cc(F)cc(Cl)c2)[C@@H](C)C1 (some centres unmarked) [compound 413] has IC50 smaller than 30 nM.
Reply | condition met

Ask | Hello, I'm reviewing records and need to know if IC50 of CC(CC1(C2CC2)NC(=O)NC1=O)C(=O)N1CCN(c2cncc(F)c2)[C@@H](C)C1 (some centres unmarked) is below 30 nM. Could you check?
Reply | condition not met

Ask | Take the compound C[C@H]1CN(C(=O)CCC2(c3cccnc3)NC(=O)NC2=O)CCN1c1cc(F)cc(Cl)c1 (some centres unmarked) and say whether its IC50 is less than 30 nM.
Reply | condition not met
